Target: UniProt:P18405
Sequence (P18405 whole entry): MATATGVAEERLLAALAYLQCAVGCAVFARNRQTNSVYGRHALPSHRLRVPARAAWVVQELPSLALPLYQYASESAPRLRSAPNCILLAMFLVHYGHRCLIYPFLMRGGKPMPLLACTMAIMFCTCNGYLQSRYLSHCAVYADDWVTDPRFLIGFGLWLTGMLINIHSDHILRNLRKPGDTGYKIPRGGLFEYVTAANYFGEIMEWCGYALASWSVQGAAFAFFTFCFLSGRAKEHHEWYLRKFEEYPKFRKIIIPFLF
Assay: Apparent inhibition constant towards human Steroid 5-alpha-reductase type I
Conditions: read-out: Ki app
Assign Ki to each entry below.
Answers are plain numbers, in nM.

Worked cases, answers included:
>  <molecule>
COc1cccc2c1CC=C1C=C(P(O)O)CCC12C (stereo unspecified)

>  <Ki (nM)>
1900

$$$$
>  <molecule>
CC(C)N(C(=O)[C@H]1CCC2C3CC=C4C=C(P(O)O)CC[C@]4(C)C3CC[C@@]21C)C(C)C (stereo partly specified)

>  <Ki (nM)>
4900

$$$$
>  <molecule>
COc1cccc2c1CC=C1C=C(C(=O)O)CCC12C (stereo unspecified)

>  <Ki (nM)>
1900

$$$$
>  <molecule>
CC(C)(C)NC(=O)[C@H]1CC[C@H]2[C@@H]3CC[C@H]4NC(=O)C=C[C@]4(C)[C@H]3CC[C@]12C [FINASTERIDE]

>  <Ki (nM)>
100

$$$$
>  <molecule>
CC12CCC(P(O)O)=CC1=CCc1cc(Cl)ccc12 (stereo unspecified)

>  <Ki (nM)>
1900

$$$$

Turning now to a further molecule:
Give me measured Ki, please, for this molecule: CC(C)(C)NC(=O)[C@H]1CC[C@H]2[C@@H]3CC=C4C=C(C(=O)O)CC[C@]4(C)[C@H]3CC[C@]12C [EPRISTERIDE]
410
